biological target: Neu5Ac(a2-3)[Neu5Ac(a2-6)]GalNAc; assay: glycan array binding signal (z-score within array); higher = stronger binding; conditions: glycan notation: IUPAC condensed, linker removed
Shown is part of a subset that was picked to be rich in the strongest signals.
Measured Parameter: glycan array binding signal (z-score)
// return just the number, without any unit appended

Input: Indicate the recorded glycan array binding signal (z-score) value for this binder: Arath Fbox (Arabidopsis thaliana), NP_178341.1 (protein) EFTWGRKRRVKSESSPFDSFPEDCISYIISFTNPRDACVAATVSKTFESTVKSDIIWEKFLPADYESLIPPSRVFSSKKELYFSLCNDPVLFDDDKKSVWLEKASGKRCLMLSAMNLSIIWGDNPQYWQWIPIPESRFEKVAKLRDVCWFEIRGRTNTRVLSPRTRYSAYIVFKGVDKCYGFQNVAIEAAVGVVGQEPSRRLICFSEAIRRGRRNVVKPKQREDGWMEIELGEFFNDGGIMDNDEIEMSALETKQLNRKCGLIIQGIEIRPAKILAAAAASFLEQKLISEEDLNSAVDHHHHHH
Output: -0.205
